Assay: Inhibition of PD1ss-Gluc secretion in doxycyclin-induced human Flp-In-T-REx-293 cells measured by Gaussia luciferase reporter gene method
Type: functional, cell-based
Below, each entry is listed with its recorded pIC50.
# pIC50: negative log10 of molar concentration; output just the value

# COMPOUND_STRUCTURE_STRING, pIC50
measured = [
    ("CC(C)(C)c1csc(NC(=O)Cc2cn(Cc3ccc(F)cc3)c3ccccc23)n1", 4.89),
]

Read the next record carefully.
INPUT: // returns reported pIC50 for input `CCCC(C)(C)c1csc(NC(=O)Cc2csc3ccc(Cl)cc23)n1`
OUTPUT: 5.76

###

Below, each entry is listed with its recorded pIC50.
Test: Inhibition of PD1ss-Gluc secretion in doxycyclin-induced human Flp-In-T-REx-293 cells measured by Gaussia luciferase reporter gene method
Format: functional, cell-based
# pIC50: negative log10 of molar concentration; output just the value

Below are worked cases with known answers.
# COMPOUND_STRUCTURE_STRING, pIC50
data = [
    ("CC(C)(C)c1csc(NC(=O)Cc2cn(Cc3ncccn3)c3ccc(Cl)cc23)n1", 4.63),
    ("CC(C)(C)Cc1csc(NC(=O)Cc2csc3ccc(Cl)cc23)n1", 5.16),
]

INPUT: // returns reported pIC50 for input `Cc1ccc2c(CC(=O)Nc3nc(C(C)(C)C)cs3)csc2c1`
OUTPUT: 4.65
